# Tested System: T1, recombinant human TfR1 (transferrin receptor protein 1) (human, UniProt P02786 89-760)
# T1 construct: Recombinant protein in SPR and ELISA; they were assigned to this molecule; also called hTfR1; huTfR1
# T1 sequence (P02786 89-760 limits assumed): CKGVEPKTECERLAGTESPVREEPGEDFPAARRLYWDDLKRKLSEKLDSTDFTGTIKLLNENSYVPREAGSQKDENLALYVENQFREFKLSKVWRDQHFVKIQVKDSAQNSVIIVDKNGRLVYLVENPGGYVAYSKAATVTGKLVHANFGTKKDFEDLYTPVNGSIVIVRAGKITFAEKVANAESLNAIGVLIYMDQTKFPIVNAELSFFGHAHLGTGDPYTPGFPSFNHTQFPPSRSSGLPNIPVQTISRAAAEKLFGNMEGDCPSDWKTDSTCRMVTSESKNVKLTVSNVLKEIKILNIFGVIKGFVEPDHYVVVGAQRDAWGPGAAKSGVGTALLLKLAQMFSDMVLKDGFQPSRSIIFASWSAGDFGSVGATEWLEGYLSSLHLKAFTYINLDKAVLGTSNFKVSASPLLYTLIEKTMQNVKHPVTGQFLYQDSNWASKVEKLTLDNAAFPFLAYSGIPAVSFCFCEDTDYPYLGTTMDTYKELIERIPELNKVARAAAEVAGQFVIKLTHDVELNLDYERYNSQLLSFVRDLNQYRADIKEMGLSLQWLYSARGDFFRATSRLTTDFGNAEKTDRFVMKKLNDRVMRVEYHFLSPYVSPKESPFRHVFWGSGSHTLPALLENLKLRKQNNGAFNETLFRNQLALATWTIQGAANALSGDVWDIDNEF
# Experiment Summary: Table 14, unconjugated Fab, d9 (after 9 days at 40 C); method not named
Assay Readout: log10(Binding affinity) (log10 of the value in nM)
The common logarithm of Binding affinity in nM is what is listed.

Exercise: # input binder: humanized anti-TfR Fab 5H12 VH5 (C33Y)/Vκ4 (Fab, V domains shown, also called 5H12 (VH5-C33Y/Vk4)) VH: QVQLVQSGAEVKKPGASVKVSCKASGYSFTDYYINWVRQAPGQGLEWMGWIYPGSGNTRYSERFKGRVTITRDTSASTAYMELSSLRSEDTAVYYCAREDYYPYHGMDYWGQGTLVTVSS VL: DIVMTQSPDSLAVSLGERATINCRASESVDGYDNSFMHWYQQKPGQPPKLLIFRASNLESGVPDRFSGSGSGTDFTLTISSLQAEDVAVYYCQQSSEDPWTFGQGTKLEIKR ; wanted: its log10(Binding affinity)
Solution: 3.24

Exercise: # input binder: humanized anti-TfR Fab 3M12 VH3/Vκ3 (Fab, V domains shown, also called 3M12 (VH3/Vk3)) VH: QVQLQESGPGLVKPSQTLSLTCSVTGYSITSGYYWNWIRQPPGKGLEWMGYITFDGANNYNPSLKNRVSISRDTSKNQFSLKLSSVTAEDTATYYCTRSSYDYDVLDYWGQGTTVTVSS VL: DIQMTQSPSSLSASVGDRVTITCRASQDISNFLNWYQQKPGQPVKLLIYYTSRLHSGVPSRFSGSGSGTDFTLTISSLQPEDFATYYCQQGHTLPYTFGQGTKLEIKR ; wanted: its log10(Binding affinity)
Solution: 0.17

Exercise: State the recorded log10(Binding affinity) for this entry: humanized anti-TfR Fab 3M12 VH3/Vκ2 (Fab, V domains shown, also called 3M12 (VH3/Vk2)) VH: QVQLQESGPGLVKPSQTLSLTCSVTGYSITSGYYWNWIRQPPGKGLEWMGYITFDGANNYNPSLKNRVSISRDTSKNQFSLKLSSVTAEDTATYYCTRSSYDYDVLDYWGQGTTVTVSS VL: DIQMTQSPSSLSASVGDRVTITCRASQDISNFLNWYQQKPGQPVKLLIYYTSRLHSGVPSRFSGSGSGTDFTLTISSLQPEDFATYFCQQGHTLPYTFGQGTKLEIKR
Solution: -0.01

Exercise: Name the reported log10(Binding affinity) value associated with the binder humanized anti-TfR Fab 3A4 VH3/Vκ4 (Fab, V domains shown, also called 3A4 (VH3/Vk4)) VH: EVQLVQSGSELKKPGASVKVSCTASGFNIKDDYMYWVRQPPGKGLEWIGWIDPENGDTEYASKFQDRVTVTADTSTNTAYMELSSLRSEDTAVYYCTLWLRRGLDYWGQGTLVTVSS VL: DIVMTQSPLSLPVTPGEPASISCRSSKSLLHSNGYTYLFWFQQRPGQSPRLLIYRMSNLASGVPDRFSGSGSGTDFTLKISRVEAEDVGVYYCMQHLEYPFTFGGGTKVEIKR
Solution: -0.34

Exercise: Entry humanized anti-TfR Fab 3M12 VH4/Vκ2 (Fab, V domains shown, also called 3M12 (VH4/Vk2)) VH: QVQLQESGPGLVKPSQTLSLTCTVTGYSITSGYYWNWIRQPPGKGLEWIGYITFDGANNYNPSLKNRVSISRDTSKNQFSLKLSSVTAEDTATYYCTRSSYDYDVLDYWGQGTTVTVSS VL: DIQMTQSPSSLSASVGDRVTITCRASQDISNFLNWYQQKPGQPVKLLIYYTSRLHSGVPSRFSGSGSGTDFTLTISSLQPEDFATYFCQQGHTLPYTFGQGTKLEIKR : reported log10(Binding affinity) = ?
Solution: -0.30

Exercise: So what does the record say about log10(Binding affinity) for humanized anti-TfR Fab 3A4 VH3 (N54S)/Vκ4 (Fab, V domains shown, also called 3A4 (VH3-N54S/Vk4)) VH: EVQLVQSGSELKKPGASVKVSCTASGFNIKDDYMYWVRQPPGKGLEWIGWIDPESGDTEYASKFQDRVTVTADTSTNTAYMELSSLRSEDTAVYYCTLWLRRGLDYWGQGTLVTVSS VL: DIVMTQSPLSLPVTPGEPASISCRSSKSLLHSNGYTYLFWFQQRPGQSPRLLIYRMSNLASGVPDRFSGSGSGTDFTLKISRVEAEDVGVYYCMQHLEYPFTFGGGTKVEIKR ?
Solution: -0.19

Exercise: Find the recorded log10(Binding affinity) belonging to humanized anti-TfR Fab 5H12 VH5 (C33Y)/Vκ3 (Fab, V domains shown, also called 5H12 (VH5-C33Y/Vk3)) VH: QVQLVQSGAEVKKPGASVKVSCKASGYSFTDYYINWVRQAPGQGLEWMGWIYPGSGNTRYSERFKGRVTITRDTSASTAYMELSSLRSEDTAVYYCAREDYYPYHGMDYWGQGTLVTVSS VL: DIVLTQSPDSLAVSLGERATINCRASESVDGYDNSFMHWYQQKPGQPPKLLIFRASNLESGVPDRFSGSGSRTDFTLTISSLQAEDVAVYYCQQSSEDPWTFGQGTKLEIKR and report it.
Solution: 1.86

Exercise: Record request: log10(Binding affinity) value, item humanized anti-TfR Fab 3A4 VH3 (N54T)/Vκ4 (Fab, V domains shown, also called 3A4 (VH3-N54T/Vk4)) VH: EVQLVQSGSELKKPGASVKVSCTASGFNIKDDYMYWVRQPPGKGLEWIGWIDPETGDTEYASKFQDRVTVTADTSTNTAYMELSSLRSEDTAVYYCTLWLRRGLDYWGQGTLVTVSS VL: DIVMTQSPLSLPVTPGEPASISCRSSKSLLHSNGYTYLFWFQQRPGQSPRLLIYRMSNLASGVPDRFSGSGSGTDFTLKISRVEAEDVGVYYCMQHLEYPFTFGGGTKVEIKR
Solution: -0.40

Exercise: Tell me the measured log10(Binding affinity) of humanized anti-TfR Fab 5H12 VH5 (C33D)/Vκ4 (Fab, V domains shown, also called 5H12 (VH5-C33D/Vk4)) VH: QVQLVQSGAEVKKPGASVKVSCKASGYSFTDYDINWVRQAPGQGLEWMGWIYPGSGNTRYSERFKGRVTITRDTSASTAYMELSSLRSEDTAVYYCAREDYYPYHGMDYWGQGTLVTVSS VL: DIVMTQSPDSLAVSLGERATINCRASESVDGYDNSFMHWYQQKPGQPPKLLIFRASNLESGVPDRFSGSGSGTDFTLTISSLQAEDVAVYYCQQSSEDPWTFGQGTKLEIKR , please.
Solution: 1.97

Exercise: Value lookup for log10(Binding affinity); key = humanized anti-TfR Fab 3M12 VH4/Vκ3 (Fab, V domains shown, also called 3M12 (VH4/Vk3); anti-TfR Fab 3M12 VH4/Vk3) VH: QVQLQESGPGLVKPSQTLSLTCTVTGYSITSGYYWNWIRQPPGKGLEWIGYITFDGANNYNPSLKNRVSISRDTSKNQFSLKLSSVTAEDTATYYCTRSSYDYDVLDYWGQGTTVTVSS VL: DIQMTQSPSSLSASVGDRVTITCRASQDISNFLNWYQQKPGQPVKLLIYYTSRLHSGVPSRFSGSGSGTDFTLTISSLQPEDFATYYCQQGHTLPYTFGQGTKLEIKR
Solution: -0.55
